Listed here: items and their measured log10 S_aureus_Smith_WT_MIC.
Tested on: Staphylococcus aureus Smith
assay: MIC assay, modified agar dilution (CLSI), S. aureus Smith
Assay type: cell-based
condition summary: agar dilution, 35° C., 16-20 hr; lowest concentration that completely inhibited growth; Hydrochloride
// do not treat as linear: log10 of S_aureus_Smith_WT_MIC, unit µg/mL

INSERT INTO measurements (compound, assay_endpoint, observed_value) VALUES
  ('COc1ccc2ncc(F)c(C3OC(=O)OC3C34CCC(NCc5ccc6c(n5)NC(=O)CO6)(CC3)CO4)c2n1.Cl (single isomer, unassigned) [Example 27b]', 'log10 S_aureus_Smith_WT_MIC', 0.30);

What the record says about COc1ccc2ncc(F)c(C3OC(=O)OC3C34CCC(NCc5ccc6c(n5)NC(=O)CO6)(CC3)CO4)c2n1.Cl (single isomer, unassigned) [Example 27a] : log10 S_aureus_Smith_WT_MIC is -0.60

What the record says about COc1ccc2ncc(=O)n(CC(O)C34CCC(NCc5ccc6c(n5)NC(=O)CO6)(CC3)CO4)c2n1.Cl (single isomer, unassigned) [Example 51b] : log10 S_aureus_Smith_WT_MIC is -1.20

What the record says about COc1ccc2ncc(F)c(C(O)C(O)C34CCC(NCc5ccc6c(n5)NC(=O)CO6)(CC3)CO4)c2n1.Cl (single isomer, unassigned) [Example 26a] : log10 S_aureus_Smith_WT_MIC is -0.60

What the record says about COc1ccc2ncc(F)c(CCC34CCC(NCc5ccc6c(n5)NC(=O)C(C)O6)(CC3)CO4)c2n1.Cl (single isomer, unassigned) [Example 100b] : log10 S_aureus_Smith_WT_MIC is -1.20

====

System: Staphylococcus aureus Smith
assay: MIC assay, modified agar dilution (CLSI), S. aureus Smith
Format: cell-based
condition summary: agar dilution, 35° C., 16-20 hr; lowest concentration that completely inhibited growth
Listed here: items and their measured S_aureus_Smith_WT_MIC.
Reply with just the number (in µg/mL).

INSERT INTO assay_data (compound, units_text, observed_value) VALUES
  ('COc1ccc2ncc(F)c(C(C)C(O)C34CCC(NCc5ccc6c(n5)NC(=O)CO6)(CC3)CO4)c2n1 (single isomer, unassigned) [Example 151b]', 'µg/mL', 4.00),
  ('O=C1COc2ccc(CNC34CCC(C(O)Cn5c(=O)ccc6ncc(F)cc65)(CC3)OC4)nc2N1 (single isomer, unassigned) [Example 55a]', 'µg/mL', 1.00);

Next compound, S_aureus_Smith_WT_MIC to be filled in.
What the record says about COc1ccc2ccc(=O)n(CC(O)C34CCC(NCc5ccc6c(n5)NC(=O)CO6)(CC3)CO4)c2n1 (single isomer, unassigned) [Example 52a] : S_aureus_Smith_WT_MIC is 0.0310

====

Listed here: items and their measured S_aureus_Smith_WT_MIC.
Test system: Staphylococcus aureus Smith
assay: MIC assay, modified agar dilution (CLSI), S. aureus Smith
Type: cell-based
condition summary: agar dilution, 35° C., 16-20 hr; lowest concentration that completely inhibited growth

INSERT INTO measurements (compound, tgt, observed_value) VALUES
  ('COc1ccc2ncc(Cl)c(C(O)CC34CCC(NCc5ccc6c(n5)NC(=O)CO6)(CC3)CC4)c2n1 (single isomer, unassigned) [Example 13b]', 'Staphylococcus aureus Smith', '0.0630 µg/mL'),
  ('COc1ccc2ncc(F)c(CCC34CCC(NCc5cc6c(cn5)OCC(=O)N6)(CC3)CO4)c2n1', 'Staphylococcus aureus Smith', '0.0310 µg/mL'),
  ('COc1ccc2ncc(F)c(CC(O)C34CCC(NCc5ccc6c(n5)NC(=O)CO6)(CC3)CO4)c2n1.Cl (single isomer, unassigned) [Example 20b]', 'Staphylococcus aureus Smith', '0.0630 µg/mL'),
  ('COc1ccc2ccc(=O)n(CC(O)C34CCC(NCc5ccc6c(n5)NC(=O)CO6)(CC3)CO4)c2n1 (single isomer, unassigned) [Example 52b]', 'Staphylococcus aureus Smith', '0.0630 µg/mL');

What the record says about COc1ccc2ncc(Cl)c(CC(O)C34CCC(NCc5ccc6c(n5)NC(=O)CO6)(CC3)CC4)c2n1.Cl (single isomer, unassigned) [Example 14b] : S_aureus_Smith_WT_MIC is 0.0310 µg/mL

What the record says about N#Cc1cnc2ccc(=O)n(CC(O)C34CCC(NCc5cc6c(cn5)OCCO6)(CC3)CO4)c2c1 (single isomer, unassigned; enantiomer b) : S_aureus_Smith_WT_MIC is 2.00 µg/mL

What the record says about COc1ccc2ncc(F)c(C(C)C(O)C34CCC(NCc5ccc6c(n5)NC(=O)CO6)(CC3)CO4)c2n1 (single isomer, unassigned) [Example 151a] : S_aureus_Smith_WT_MIC is 32.0 µg/mL

What the record says about COc1cnc2ccc(=O)n(CC(O)C34CCC(NCc5ccc6c(n5)NC(=O)CO6)(CC3)CO4)c2c1 (single isomer, unassigned) [Example 54a] : S_aureus_Smith_WT_MIC is 0.250 µg/mL
